// provenance: paper PMC5540273

- Test system: ADCK3
- Construct: gene CABC1
- Condition context: concentration: 1 μM, replicates: in singlicate; n = 1;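 further: KINOMEscan kinase panel screen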
Readout kind: %Inh (%)
Please give a number only; it is taken to be in %.

> print(dat)
                                smiles.code  number
1             COc1ccc(-n2cnc3c(N)ncnc32)cc1       0
2  CCC(=O)c1c(-c2ccccc2)c2cc(Cl)ccc2c(=O)n1Cc1cc(S(C)(=O)=O)n(CC(F)F)n1       0
3  COc1cc2ncn(-c3cc(OCc4ccc(S(C)(=O)=O)cc4)c(C(N)=O)s3)c2cc1OC      31
4   O=C(Nc1n[nH]c2cc(-c3ccccc3F)ccc12)C1CC1       0

# evaluate next
Data request: Which %Inh reading was recorded for the molecule Nc1n[nH]c2nnc(-c3ccccc3)c(-c3ccccc3)c12 ?
Data returned: 27

====

- Tested on: PRKG1
- Condition context: concentration: 1 μM, replicates: in singlicate; n = 1
We begin with a simple list: items and their reported %Inh.
Please give a number only; it is taken to be in %.

Please review the entries below; each comes with its answer.
> print(dat)
                                smiles.code  output.unit  number
1  CC(C)(C)c1ccc(C(=O)Nc2cn3cc(-c4ccccc4)ccc3n2)cc1            %       1
2  COc1cc2ncn(-c3cc(OCc4ccc(S(C)(=O)=O)cc4)c(C(N)=O)s3)c2cc1OC            %       0

# evaluate next
Data request: Which %Inh reading was recorded for the molecule CCn1c(-c2ccoc2)nc2cnccc21 ?
Data returned: 0

====

We begin with a simple list: items and their reported %Inh.
- Tested on: ABL1-nonphosphorylated
- Condition context: concentration: 1 μM, replicates: in singlicate; n = 1
Please give a number only; it is taken to be in %.

Please review the entries below; each comes with its answer.
> print(dat)
                                smiles.code  output.unit  number
1  CN1C(=O)C(Nc2cc(Cl)c(O)c(Cl)c2)=C(c2ccc(Cl)cc2)C1=O            %      30
2  COc1cccc(C2=C(N(C)c3ccccc3)C(=O)NC2=O)c1            %       5
3  Cc1cccc(-c2nc(Nc3ccc4c(cnn4C)c3)c3ccccc3n2)n1            %       0

# evaluate next
Data request: Which %Inh reading was recorded for the molecule Nc1ncnc2c1ncn2-c1cccc2ccccc12 ?
Data returned: 46

====

- Tested on: ITK
- Condition context: concentration: 1 μM, replicates: in singlicate; n = 1
Decide by %Inh: equal to or exceeding 1% means Y, less means N.

Please review the following examples before continuing.
> print(dat)
                                   compound  target.under.test  label.value
1  COc1cc2nccc(Nc3cccc(Oc4ccccc4)c3)c2cc1OC.Cl                ITK            Y
2  Cc1nnc(-c2ccc3ncn(-c4ccc(S(C)=O)cc4)c3c2)o1 (stereo not shown)                ITK            Y
3  Cl.NS(=O)(=O)c1cccc(Nc2cc(-c3ccc(F)cc3)n[nH]2)c1                ITK            N
4  COc1cc2ncn(-c3cc(OCc4ccncc4Br)c(C(N)=O)s3)c2cc1OC                ITK            N
5  Cc1nc(N(C)[C@H]2CN(C(=O)CC#N)CC[C@H]2C)c2cc[nH]c2n1                ITK            Y

Data request: Tell me whether %Inh is at least 1% here: COc1cccc(-n2cnc3c(N)ncnc32)c1
Data returned: N

Data request: Tell me whether %Inh is at least 1% here: FC(F)(F)c1ccc(-c2ncn(CCCN3CCOCC3)c2-c2ccncc2)cc1
Data returned: Y

Data request: Tell me whether %Inh is at least 1% here: CCC(=O)c1c(-c2ccccc2)c2cc(Cl)ccc2c(=O)n1Cc1ccc(C(=O)O)cc1
Data returned: Y

Data request: Tell me whether %Inh is at least 1% here: COc1ccc(-c2cc3c(C)nc(N)nc3n([C@H]3CC[C@H](OCCO)CC3)c2=O)cn1
Data returned: N

Data request: Tell me whether %Inh is at least 1% here: COc1cc(OC)cc(-c2cc3cnc(N)nc3nc2NC(=O)NC(C)(C)C)c1
Data returned: N

Data request: Tell me whether %Inh is at least 1% here: Cn1c(=O)c(F)c(Nc2ccc(I)cc2F)c2c(=O)n(OC[C@H](O)CO)cnc21
Data returned: Y

Data request: Tell me whether %Inh is at least 1% here: O=C1NC(=O)C(c2ccccc2)=C1Nc1cccc(O)c1
Data returned: N

Data request: Tell me whether %Inh is at least 1% here: CCCC(=O)Nc1n[nH]c2ncc(-c3cccc4ccccc34)cc12
Data returned: Y

Data request: Tell me whether %Inh is at least 1% here: COc1cc2nccc(Nc3ccc(OCc4ccc(NC(C)=O)cc4)cc3)c2cc1OC.Cl
Data returned: Y

Data request: Tell me whether %Inh is at least 1% here: O=C(Nc1n[nH]c2cc(-c3ccccc3F)ccc12)C1CC1
Data returned: N

====

- System: PIP5K1A
- Condition context: concentration: 1 μM, replicates: in singlicate; n = 1
We begin with a simple list: items and their reported %Inh.

Please review the entries below; each comes with its answer.
> print(dat)
                                smiles.code  result
1        CCc1nc(-c2cccc(C)c2)c(-c2ccncc2)s1      0%
2  CCC(=O)c1c(-c2ccccc2)c2cc(Cl)ccc2c(=O)n1Cc1ccc(C(=O)O)cc1     18%

Data request: Which %Inh reading was recorded for the compound Nc1nc(N)c2nc(-c3ccccc3)[nH]c2n1 ?
Data returned: 0%

====

- Test system: FLT4
- Condition context: concentration: 1 μM, replicates: in singlicate; n = 1
Readout kind: %Inh (%)
Please give a number only; it is taken to be in %.

Data request: Which %Inh reading was recorded for the compound Cl.NS(=O)(=O)c1cccc(Nc2cc(-c3ccc(F)cc3)n[nH]2)c1 [GW824645] ?
Data returned: 0

Data request: Which %Inh reading was recorded for the compound Cl.c1ccc(Cn2cnc3cc(Nc4ncnc5ccccc45)ccc32)cc1 [GW272142] ?
Data returned: 3

Data request: Which %Inh reading was recorded for the compound COc1cc(Nc2nccc(N3CCC(NC(=O)C(C)c4ccc(Cl)cc4)C3)n2)cc(OC)c1OC (stereo not shown) [GSK1379757] ?
Data returned: 7

Data request: Which %Inh reading was recorded for the compound Cc1nnc(-c2ccc3ncn(-c4ccc(S(C)=O)cc4)c3c2)o1 (stereo not shown) ?
Data returned: 0

====

- System: CSK
- Condition context: concentration: 1 μM, replicates: in singlicate; n = 1
We begin with a simple list: items and their reported %Inh.
Please give a number only; it is taken to be in %.

Please review the entries below; each comes with its answer.
> print(dat)
                                smiles.code  readout.kind  number
1   O=C(Nc1n[nH]c2cc(-c3ccccc3F)ccc12)C1CC1          %Inh       0
2  COc1cc(Nc2ccnc3ccc(C(F)(F)F)cc23)cc(OC)c1OC          %Inh       3
3  O=C(NCc1cccs1)c1cc(C(=O)c2c(Cl)cccc2Cl)c[nH]1          %Inh       0
4  COC(=O)c1c(-c2ccccc2)c2cc(Br)ccc2c(=O)n1Cc1ccc(NC(=O)CCC(=O)O)cc1          %Inh       0
5  Cc1cc(Nc2nc(-c3cccc(C)n3)nc3ccccc23)ccn1          %Inh       0

Data request: Which %Inh reading was recorded for the molecule Cl.NS(=O)(=O)c1cccc(Nc2cc(-c3ccc(F)cc3)n[nH]2)c1 ?
Data returned: 0

Data request: Which %Inh reading was recorded for the molecule OCCCNc1nccc(-c2c(-c3cccc(C(F)(F)F)c3)nn3cc(C(F)(F)F)ccc23)n1 ?
Data returned: 0

Data request: Which %Inh reading was recorded for the molecule Nc1nccc2scc(-c3ccc4c(c3)CCN4C(=O)Cc3ccccc3)c12 ?
Data returned: 0

Data request: Which %Inh reading was recorded for the molecule CCn1c(-c2nonc2N)nc2ccccc21 ?
Data returned: 5

====

- System: EPHA2
- Condition context: concentration: 1 μM, replicates: in singlicate; n = 1
Decide by %Inh: equal to or exceeding 6% means Met, less means Not met.

Data request: Tell me whether %Inh is at least 6% here: COc1ccc(-c2coc3ccc(-c4nnc(SCc5cccc(C#N)c5)o4)cc23)cc1
Data returned: Not met

Data request: Tell me whether %Inh is at least 6% here: Nc1ncnc2c1ncn2-c1cccc2ccccc12
Data returned: Not met

Data request: Tell me whether %Inh is at least 6% here: CCc1ccc(-c2ccc3c(c2)-c2nn(C)cc2S(=O)(=O)N3C)cc1
Data returned: Met

Data request: Tell me whether %Inh is at least 6% here: CN1C(=O)C(Nc2cc(Cl)c(O)c(Cl)c2)=C(c2ccc(Cl)cc2)C1=O
Data returned: Not met

Data request: Tell me whether %Inh is at least 6% here: CCc1nc(-c2cccc(C)c2)c(-c2ccncc2)s1
Data returned: Met

Data request: Tell me whether %Inh is at least 6% here: COc1ccc(CNC(=O)NC2CCN(c3ccnc(Nc4ccc(F)cc4)n3)C2)cc1 (stereo not shown)
Data returned: Met

Data request: Tell me whether %Inh is at least 6% here: O=C(NCc1cccs1)c1cc(C(=O)c2c(Cl)cccc2Cl)c[nH]1
Data returned: Not met

Data request: Tell me whether %Inh is at least 6% here: CCS(=O)(=O)c1ccc(OC)c(Nc2ncc(-c3ccc(F)cc3)o2)c1.Cl
Data returned: Not met

Data request: Tell me whether %Inh is at least 6% here: COc1ccc(-c2cc3c(C)nc(N)nc3n([C@H]3CC[C@H](O)CC3)c2=O)cn1
Data returned: Met

Data request: Tell me whether %Inh is at least 6% here: CCS(=O)c1ccc(-c2coc3ccc(-c4nnc(C)o4)cc23)cc1 (stereo not shown)
Data returned: Met

Data request: Tell me whether %Inh is at least 6% here: CCn1c(-c2nonc2N)nc2ccccc21
Data returned: Not met

Data request: Tell me whether %Inh is at least 6% here: CCC(=O)c1c(-c2ccccc2)c2cc(Cl)ccc2c(=O)n1Cc1cc(S(C)(=O)=O)n(CC(F)F)n1
Data returned: Not met

Data request: Tell me whether %Inh is at least 6% here: O=C(Nc1n[nH]c2nc(-c3ccccc3)c(Cl)cc12)C1CC1
Data returned: Met

Data request: Tell me whether %Inh is at least 6% here: COc1cccc(C2=C(N(C)c3ccccc3)C(=O)NC2=O)c1
Data returned: Not met

Data request: Tell me whether %Inh is at least 6% here: COc1cc(Nc2nccc(N3CCC(NC(=O)C4COc5ccccc5O4)C3)n2)cc(OC)c1OC (stereo not shown)
Data returned: Met

Data request: Tell me whether %Inh is at least 6% here: COC(=O)c1c(-c2ccccc2)c2cc(Br)ccc2c(=O)n1Cc1ccc(S(C)(=O)=O)cc1
Data returned: Met

Data request: Tell me whether %Inh is at least 6% here: COc1cc2nccc(Nc3ccc(OCc4ccc(NC(C)=O)cc4)cc3)c2cc1OC.Cl
Data returned: Met
